Origin of the recorded values: patent US7964624B1

# maps each entry to its pKi
assayed_target: HCV NS3 protease domain (Hepatitis C virus genotype 1b, UniProt Q9WMX2)
Construct: The first 181 amino acids of NS3 (residues 1027-1207 of the viral polyprotein); hexa-histidine (C); made in house; host or cells: E. coli BL21/DE3 pLysS
Sequence (Q9WMX2 1027-1207, other chains not shown): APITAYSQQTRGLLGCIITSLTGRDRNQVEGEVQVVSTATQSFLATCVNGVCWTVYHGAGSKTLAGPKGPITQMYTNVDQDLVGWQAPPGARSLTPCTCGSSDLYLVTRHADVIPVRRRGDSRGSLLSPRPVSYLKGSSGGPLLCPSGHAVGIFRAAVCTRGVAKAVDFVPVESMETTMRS
procedure_summary: biochemical
experimental_setup: Enzyme Assay 1 (HCV NS3 Protease Domain Peptide Cleavage Assay) activity, apparent Ki class
pKi: −log10 of the molar value.
endpoint_name: pKi

compound	endpoint_result
CCC[C@H](NC(=O)[C@@H]1C[C@]2(CC(c3cccc(Cl)c3)=NO2)CN1C(=O)[C@@H](NC(=O)CC1CCCCC1)C(C)(C)C)C(=O)C(=O)NC1CCS(=O)(=O)C1 (stereo partly drawn)	< 6.30
CCC[C@H](NC(=O)[C@@H]1C[C@]2(CC(c3ccc(F)c(Cl)c3)=NO2)CN1C(=O)[C@@H](NC(=O)O[C@H]1CCOC1)C(C)(C)C)C(=O)C(=O)NC1CC1	6.30 to 7.00
CC(C)(C)[C@H](NC(=O)CC1CCCCC1)C(=O)N1C[C@@]2(CC(c3cccc(Cl)c3)=NO2)C[C@H]1C(=O)N[C@@H](CC1CC1)C(=O)C(N)=O	> 7.00
CCC[C@H](NC(=O)[C@@H]1C[C@]2(CC(c3cccc(Cl)c3)=NO2)CN1C(=O)C(NS(=O)(=O)c1ccccc1)c1ccccc1)C(=O)C(=O)NC1CC1 (stereo partly drawn)	< 6.30
CCC[C@H](NC(=O)[C@@H]1C[C@]2(CC(c3cccc(Cl)c3)=NO2)CN1C(=O)[C@@H](NC(=O)CCC1NC(=O)NC1=O)C(C)(C)C)C(=O)C(=O)NC1CC1 (stereo partly drawn)	6.30 to 7.00
CCC[C@H](NC(=O)C1C[C@]2(CC(c3ccc4c(c3)OCO4)=NO2)CN1C(=O)c1ccc[nH]1)C(=O)C(=O)NC1CC1 (stereo partly drawn)	< 6.30
CCC[C@H](NC(=O)[C@@H]1C[C@]2(CC(C)=NO2)CN1C(=O)[C@@H](NC(C)=O)C(C)(C)C)C(=O)C(=O)NC1CC1	< 6.30
CCC[C@H](NC(=O)[C@@H]1C[C@]2(CC(c3cccc(Cl)c3)=NO2)CN1C(=O)[C@@H](NC(=O)CC1CCN(C(C)=O)CC1)C(C)(C)C)C(=O)C(=O)NC1CC1	6.30 to 7.00
CCC[C@H](NC(=O)[C@@H]1C[C@]2(CC(c3ccc(F)c(C)c3)=NO2)CN1C(=O)O[C@H]1CCOC1)C(=O)C(=O)NC1CC1	< 6.30
CCC[C@H](NC(=O)[C@@H]1C[C@]2(CC(c3cccc(Cl)c3)=NO2)CN1C(=O)[C@@H](NC(=O)CC1CCCCC1)C(C)(C)C)C(=O)C(=O)NCc1ccco1	< 6.30
CCC[C@H](NC(=O)[C@@H]1C[C@]2(CC(c3cccc(Cl)c3)=NO2)CN1C(=O)[C@@H](NC(=O)Nc1ccccc1)C(C)(C)C)C(=O)C(=O)NC1CC1	6.30 to 7.00
CCC[C@H](NC(=O)[C@@H]1C[C@]2(CC(c3ccccc3)=NO2)CN1C(=O)[C@@H](NC(=O)O[C@H]1CCOC1)C(C)(C)C)C(=O)C(=O)NC1CC1	< 6.30
CCC[C@H](NC(=O)[C@@H]1C[C@]2(CC(c3cccc(Cl)c3)=NO2)CN1C(=O)[C@@H](NC(=O)CC1CCCCC1)C(C)(C)C)C(=O)C(=O)NCC1(c2ccc(OC)cc2)CCOCC1	< 6.30
CCC[C@H](NC(=O)[C@@H]1C[C@]2(CC(c3cccc(Cl)c3)=NO2)CN1C(=O)[C@H](CC(C)C)NC(C)=O)C(=O)C(=O)NC1CC1	< 6.30
CCC[C@H](NC(=O)[C@@H]1C[C@]2(CC(c3cccc(Cl)c3)=NO2)CN1C(=O)[C@@H](NC(=O)CC1CCCCC1)C(C)(C)C)C(=O)C(=O)NCc1cccnc1	< 6.30
CCC[C@H](NC(=O)[C@@H]1C[C@]2(CC(c3cc(F)cc(Cl)c3)=NO2)CN1C(=O)[C@@H](NC(=O)CC1CCOCC1)C(C)(C)C)C(=O)C(=O)NC1CC1	6.30 to 7.00
CCC[C@H](NC(=O)[C@@H]1C[C@]2(CC(C(=O)c3ccc(Cl)cc3)=NO2)CN1C(=O)[C@@H](NC(=O)O[C@H]1CCOC1)C(C)(C)C)C(=O)C(=O)NC1CC1	< 6.30
CCC[C@H](NC(=O)[C@@H]1C[C@]2(CC(c3cccc(Cl)c3)=NO2)CN1C(=O)[C@@H](NC(=O)OCCOC)C(C)(C)C)C(=O)C(=O)NC1CC1	6.30 to 7.00
CCC[C@H](NC(=O)[C@@H]1C[C@]2(CC(c3cc(Cl)c(OC)cc3OC)=NO2)CN1C(=O)[C@@H](NC(=O)OCc1ccccc1)C(C)(C)C)C(=O)C(=O)NC1CC1	6.30 to 7.00
CCC[C@H](NC(=O)[C@@H]1C[C@]2(CC(c3cccc(Cl)c3)=NO2)CN1C(=O)[C@@H](NC(=O)CC1CCCCC1)C(C)(C)C)C(=O)C(=O)NC1CCCC1	6.30 to 7.00
C=C[C@@H]1C[C@]1(NC(=O)[C@@H]1C[C@]2(CC(c3cccc(Cl)c3)=NO2)CN1C(=O)[C@@H](NC(=O)OC1CCCC1)C(C)(C)C)C(=O)NS(=O)(=O)C1CC1	6.30 to 7.00
